# System: YUHIMO melanoma cells
# Procedure summary: CellTiter-Glo Luminescent Cell Viability Assay
# Format: cell-based
# Condition: Homo sapiens, PDE4DIP-BRAF fusion, 72 hrs
Parameter measured: pIC50
Note: pIC50 values are expressed as the negative base-10 logarithm of concentration in M.

Req: // query pIC50 value for entry "Nc1ncnc2c1c(-c1ccc(Oc3ccccc3)cc1)nn2C[C@@H]1SSC[C@@H]1O"
Resp: 6.63

* * *

# Target: mTOR (Homo sapiens, UniProt P42345)
# Construct: we tested the endogenous kinome response to SAB298; host or cells: YUSIV and YUSIK melanoma cell lysates
# Procedure summary: KiNativ in situ kinase profiling in melanoma cell lysates
# Format: binding
# Condition: mTOR in YUSIV lysate; 3-point dose response
Parameter measured: pIC50
Kindly note that pIC50 refers to -log10 of the concentration in mol/L and answer with the value alone.

Req: Given the entry "Nc1ncnc2c1c(-c1ccc(Oc3ccccc3)cc1)nn2C[C@@H]1SSC[C@@H]1O" , report its measured pIC50.
Resp: 5.89
